test system: human SMAD7 mRNA; assay: Antisense inhibition of human SMAD7 mRNA expression in Hep3B cells by 3-10-3 cEt gapmers, 10,000 nM, electroporation (Example 2); type: cell-based; details: Hep3B cells, electroporation with 10,000 nM antisense oligonucleotide, approximately 24 hours, SMAD7 mRNA by RT-PCR (RTS5062), relative to untreated control cells
Strand notation (5' to 3'): a small letter for the sugar, then the base; units joined by * are phosphorothioate-linked, units joined directly phosphodiester-linked; [ ] holds rarer units or linkages, { } end groups; capitals alone tell only the bases. k = constrained ethyl (cEt); [5mC] = 5-methylcytosine; d = 2'-deoxy (DNA)
value_kind: % Inhibition (%)
All answers are understood in %, so give the number only.

799466 (antisense kG*kA*k[5mC]*dA*dG*dA*dA*dG*d[5mC]*dT*d[5mC]*dT*dA*kG*kG*k[5mC]) [compound 799466] = 53

Fill in % Inhibition for record 799907 (antisense kA*kG*kT*dA*dA*dA*dG*dG*dG*d[5mC]*d[5mC]*dT*d[5mC]*kT*k[5mC]*kT) [compound 799907]
10

Fill in % Inhibition for record 799920 (antisense kG*kA*kT*dG*dA*dA*dT*dG*d[5mC]*dT*d[5mC]*d[5mC]*dT*kA*kA*kG) [compound 799920]
0

Fill in % Inhibition for record 799983 (k[5mC]*kA*kT*d[5mC]*dA*d[5mC]*d[5mC]*dA*d[5mC]*dG*d[5mC]*d[5mC]*dT*k[5mC]*kG*k[5mC]; antisense) [compound 799983]
15

Fill in % Inhibition for record 830187 (antisense kA*kT*kT*dA*d[5mC]*d[5mC]*d[5mC]*dT*dG*d[5mC]*dT*d[5mC]*dA*kT*kG*kA) [compound 830187]
31

Fill in % Inhibition for record 800084 (antisense kG*k[5mC]*k[5mC]*dA*dA*dA*dT*d[5mC]*dA*d[5mC]*dA*dA*d[5mC]*kA*kT*kG) [compound 800084]
57

Fill in % Inhibition for record 830096 (kA*kA*k[5mC]*dA*dA*d[5mC]*dA*dT*d[5mC]*d[5mC]*dT*dG*dA*kG*k[5mC]*kG; antisense) [compound 830096]
44

Fill in % Inhibition for record 798844 (kA*k[5mC]*k[5mC]*dT*dT*d[5mC]*dT*dG*d[5mC]*dA*d[5mC]*d[5mC]*dA*kG*k[5mC]*kT; antisense) [compound 798844]
30

Fill in % Inhibition for record 799870 (kA*k[5mC]*k[5mC]*d[5mC]*dA*dG*dA*dA*dG*d[5mC]*dT*dG*d[5mC]*kT*kG*kT; antisense) [compound 799870]
18

Fill in % Inhibition for record 830176 (antisense kA*kT*kT*d[5mC]*dT*d[5mC]*dA*dA*d[5mC]*dA*dG*dA*d[5mC]*k[5mC]*kA*k[5mC]) [compound 830176]
61

Fill in % Inhibition for record 798738 (antisense k[5mC]*kT*kT*d[5mC]*dA*dG*dA*dT*d[5mC]*d[5mC]*dG*d[5mC]*d[5mC]*kT*k[5mC]*kG) [compound 798738]
25

Fill in % Inhibition for record 830118 (kT*k[5mC]*k[5mC]*d[5mC]*dA*d[5mC]*d[5mC]*d[5mC]*dT*dA*dA*dA*d[5mC]*kT*kG*kA; antisense) [compound 830118]
0
